Each record here notes measured IC50.
measurementTarget: recombinant human GR (Homo sapiens, UniProt P04150)
Sequence (P04150 whole entry): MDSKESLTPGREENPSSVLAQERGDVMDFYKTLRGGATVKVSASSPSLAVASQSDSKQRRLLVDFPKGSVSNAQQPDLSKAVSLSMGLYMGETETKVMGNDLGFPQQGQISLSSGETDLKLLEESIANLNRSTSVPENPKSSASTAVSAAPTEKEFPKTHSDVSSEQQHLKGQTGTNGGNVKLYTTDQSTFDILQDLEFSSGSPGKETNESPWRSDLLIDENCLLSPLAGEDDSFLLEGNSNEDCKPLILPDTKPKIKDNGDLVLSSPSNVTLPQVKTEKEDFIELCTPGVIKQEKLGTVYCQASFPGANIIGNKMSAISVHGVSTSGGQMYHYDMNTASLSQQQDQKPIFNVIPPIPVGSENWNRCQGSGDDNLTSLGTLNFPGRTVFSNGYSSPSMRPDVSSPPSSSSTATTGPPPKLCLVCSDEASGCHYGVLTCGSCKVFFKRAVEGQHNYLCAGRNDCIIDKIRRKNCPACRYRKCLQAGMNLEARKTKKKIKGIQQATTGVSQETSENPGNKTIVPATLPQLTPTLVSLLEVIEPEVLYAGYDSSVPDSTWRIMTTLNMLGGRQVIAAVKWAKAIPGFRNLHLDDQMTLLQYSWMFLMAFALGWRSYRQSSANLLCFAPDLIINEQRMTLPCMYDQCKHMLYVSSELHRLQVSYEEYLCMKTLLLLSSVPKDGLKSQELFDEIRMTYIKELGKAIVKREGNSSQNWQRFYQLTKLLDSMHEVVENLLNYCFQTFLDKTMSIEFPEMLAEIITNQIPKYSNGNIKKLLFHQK
experimentSummary: Human Glucocorticoid Receptor (GR) Assay, fluorescence polarization competition with GS Red tracer
conditionInfo: 2 hours at room temperature, 100% control 10 μM Dexamethasone, XLfit model 205, read-out: Inhibition of GR binding, IC50

- substanceSmiles: "COCCNC(=O)c1cccc(-n2ncc3c2C=C2CC[C@@H]4[C@H]([C@@H](O)C[C@@]5(C)[C@H]4CC[C@]5(OC(=O)C4CC4)C(=O)SCF)[C@@]2(C)C3)c1"
  unitOfMeasure: "nM"
  IC50: 0.98
- substanceSmiles: "COCC(=O)O[C@]1(C(=O)SCC#N)CC[C@H]2[C@@H]3CCC4=Cc5c(cnn5-c5cccc(C(=O)NCC(N)=O)c5)C[C@]4(C)[C@H]3[C@@H](O)C[C@@]21C"
  unitOfMeasure: "nM"
  IC50: 2.8
- substanceSmiles: "C[C@]12Cc3cnn(-c4cccc(C(=O)N5CCC[C@@H]5C(N)=O)c4)c3C=C1CC[C@H]1[C@@H]3CC[C@](OC(=O)C4CC4)(C(=O)SCC#N)[C@@]3(C)C[C@H](O)[C@@]12F"
  unitOfMeasure: "nM"
  IC50: 4.2
- substanceSmiles: "COCC(=O)O[C@]1(C(=O)SCF)[C@H](C)C[C@H]2[C@@H]3CCC4=Cc5c(cnn5-c5cccc(C(=O)NCC(N)=O)c5)C[C@]4(C)[C@@]3(F)[C@@H](O)C[C@@]21C"
  unitOfMeasure: "nM"
  IC50: 5.3
- substanceSmiles: "CCC(=O)O[C@]1(C(=O)SCF)CC[C@H]2[C@@H]3CCC4=Cc5c(cnn5-c5cccc(C(=O)N6CCC[C@@H]6C(N)=O)c5)C[C@]4(C)[C@@]3(F)[C@@H](O)C[C@@]21C"
  unitOfMeasure: "nM"
  IC50: 3.6

###

measurementTarget: recombinant human GR (Homo sapiens, UniProt P04150)
experimentSummary: Human Glucocorticoid Receptor (GR) Assay, fluorescence polarization competition with GS Red tracer
conditionInfo: 2 hours at room temperature, 100% control 10 μM Dexamethasone, XLfit model 205, read-out: Inhibition of GR binding, IC50
pIC50: −log10 of the molar value.
Parameter: pIC50. Scope: all listed entries.

- substanceSmiles: "CCC(=O)O[C@]1(C(=O)SCC#N)CC[C@H]2[C@@H]3CCC4=Cc5c(cnn5-c5cccc(C(=O)N6CCC[C@@H]6C(N)=O)c5)C[C@]4(C)[C@H]3[C@@H](O)C[C@@]21C"
  pIC50: 8.22
- substanceSmiles: "CNC(=O)c1cccc(-n2ncc3c2C=C2CC[C@H]4[C@@H]5C[C@@H](C)[C@](OC(=O)COC)(C(=O)SCF)[C@@]5(C)C[C@H](O)[C@]4(F)[C@@]2(C)C3)c1"
  pIC50: 8.64
- substanceSmiles: "CCC(=O)O[C@]1(C(=O)SCF)CC[C@H]2[C@@H]3CCC4=Cc5c(cnn5-c5cccc(C(=O)NC)c5)C[C@]4(C)[C@@]3(F)[C@@H](O)C[C@@]21C"
  pIC50: 8.28
- substanceSmiles: "COCC(=O)O[C@]1(C(=O)SCF)[C@H](C)C[C@H]2[C@@H]3CCC4=Cc5c(cnn5-c5cccc(C(=O)N[C@H](C)C(N)=O)c5)C[C@]4(C)[C@@]3(F)[C@@H](O)C[C@@]21C"
  pIC50: 8.59
- substanceSmiles: "CCC(=O)O[C@]1(C(=O)SCF)[C@H](C)C[C@H]2[C@@H]3CCC4=Cc5c(cnn5-c5cccc(C(=O)N[C@@H](C)C(N)=O)c5)C[C@]4(C)[C@@]3(F)[C@@H](O)C[C@@]21C"
  pIC50: 8.55
- substanceSmiles: "CCC(=O)O[C@]1(C(=O)SCC#N)CC[C@H]2[C@@H]3CCC4=Cc5c(cnn5-c5cccc(C(=O)NCC(N)=O)c5)C[C@]4(C)[C@H]3[C@@H](O)C[C@@]21C"
  pIC50: 8.43
